target: T1, prolyl hydroxylase domain 2, PHD2_(181–426) (human, UniProt Q9GZT9 181-426); assay: ITC; apo-tPHD2; details: both partners purified
T1 construct: Used apo, or with Fe(II), Zn(II), 2OG, succinate or fumarate; also called tPHD2; apo-tPHD2; source: recombinantly expressed
T1 sequence (Q9GZT9 181-426): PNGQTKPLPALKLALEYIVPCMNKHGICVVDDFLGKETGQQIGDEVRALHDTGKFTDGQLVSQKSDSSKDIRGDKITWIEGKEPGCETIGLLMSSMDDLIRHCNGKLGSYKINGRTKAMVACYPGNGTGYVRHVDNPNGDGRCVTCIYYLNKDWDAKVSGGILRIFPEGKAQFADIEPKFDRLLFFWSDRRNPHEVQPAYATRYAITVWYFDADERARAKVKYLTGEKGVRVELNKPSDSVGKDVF
Square brackets hold non-standard residues; d marks the D form. Ends that are not written are not given here. Hyp = O=C(O)[C@@H]1C[C@@H](O)CN1
PROPERTY MEASURED: Kd (µM)

>  <BINDER>
DLDLEMLA[Hyp]YIPMDDDFQL [hydroxylated 19-mer HIF-1α CODD peptide]

>  <PROPERTY MEASURED>
Kd

>  <QUANTITATIVE RESULT>
4.6

$$$$
